assay: chemical genetic growth profiling, strain panel (AID 1159580);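 further: tested at 20 µM; growth read once vehicle control cultures reached saturation at 30 °C; 1 = growth at the plate median or of vehicle wells; lower values mean less growth of the strain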; conditions: S. cerevisiae deletion strains, growth OD, locus YDR335W, strain msn5, active compounds read low
Among all 5,500 compounds or so, about 2,000 (36%) were called active. Another 18% or so got no clear call; they are omitted. This is one part of the list.
This listing pairs compounds with measured normalized growth.

[
  {
    "compound": "O=C(O)C1=C(CSc2nnnn2CS(=O)(=O)O)CS[C@@H]2C(NC(=O)[C@H](O)c3ccccc3)C(=O)N12 (stereo partly drawn)",
    "normalized growth": 0.963
  },
  {
    "compound": "CC1(C)CC23C(=O)CCC(O)C2(C)CCC13 (stereo not drawn)",
    "normalized growth": 0.989
  },
  {
    "compound": "CC(=O)c1ccc[nH]1",
    "normalized growth": 0.993
  },
  {
    "compound": "CC(C)=CCC/C(C)=C/CO",
    "normalized growth": 0.987
  },
  {
    "compound": "CCCC(=O)Nc1ccc(OCC(O)CNC(C)C)c(C(C)=O)c1 (stereo not drawn)",
    "normalized growth": 1.01
  },
  {
    "compound": "COc1cc(OC)c2c(OC)c(-c3ccc4c(c3)OCO4)c(=O)oc2c1",
    "normalized growth": 1.01
  },
  {
    "compound": "O=C(/C=C/c1ccc(O)cc1)c1ccc(O)cc1O",
    "normalized growth": 1.02
  },
  {
    "compound": "CCCCCCCCCCCCCCCC(=O)OC[C@H](NC(=O)C(Cl)Cl)[C@H](O)c1ccc([N+](=O)[O-])cc1",
    "normalized growth": 1.02
  },
  {
    "compound": "COc1cc([C@@H]2c3cc4c(cc3[C@H](O)[C@H]3COC(=O)[C@H]23)OCO4)cc(OC)c1OC",
    "normalized growth": 1.01
  },
  {
    "compound": "COCC1=C(C(=O)OC(C)OC(=O)OC(C)C)N2C(=O)[C@@H](NC(=O)/C(=N\\OC)c3csc(N)n3)[C@H]2SC1 (stereo partly drawn)",
    "normalized growth": 0.987
  },
  {
    "compound": "C=CC[C@@H]1/C=C(\\C)C[C@H](C)C[C@H](OC)[C@H]2O[C@@](O)(C(=O)C(=O)N3CCCC[C@H]3C(=O)O[C@H](/C(C)=C/[C@@H]3CC[C@@H](O)[C@H](OC)C3)[C@H](C)[C@@H](O)CC1=O)[C@H](C)C[C@@H]2OC",
    "normalized growth": 0.96
  },
  {
    "compound": "CC(C)c1cc2c(c(O)c1O)[C@@]1(C(=O)O)CCCC(C)(C)C1CC2 (stereo partly drawn)",
    "normalized growth": 0.988
  },
  {
    "compound": "O=C1c2cccc(O)c2C(=O)c2c(O)cccc21",
    "normalized growth": 0.85
  },
  {
    "compound": "CC(=O)OC1CCC23CC1(C)CCC2C(C)(C)CC3OC(C)=O (stereo not drawn)",
    "normalized growth": 1
  },
  {
    "compound": "O=C(/C=C/c1ccccc1)c1ccc(O[C@@H]2O[C@H](CO)[C@@H](O)[C@H](O)[C@H]2O)cc1O",
    "normalized growth": 0.938
  },
  {
    "compound": "CCCCN(CC)c1c([N+](=O)[O-])cc(C(F)(F)F)cc1[N+](=O)[O-]",
    "normalized growth": 1.02
  },
  {
    "compound": "CCCN(CCC)c1c([N+](=O)[O-])cc(C(F)(F)F)cc1[N+](=O)[O-]",
    "normalized growth": 1.01
  },
  {
    "compound": "O=c1c(O)c(-c2ccccc2)oc2cc(O)ccc12",
    "normalized growth": 0.757
  }
]

###

test: chemical genetic growth profiling, strain panel (AID 1159580); settings: S. cerevisiae deletion strains, growth OD, locus YER155C, strain BEM2, active compounds read low
Out of some 5,500 compounds screened, about 2,000 (36%) were called active. Not shown: some 18% with an inconclusive outcome. Some of the results follow.
This listing pairs compounds with measured normalized growth.

[
  {
    "compound": "O=C1NS(=O)(=O)c2ccccc21",
    "normalized growth": 0.997
  },
  {
    "compound": "CN(C)CCC[C@@]1(c2ccc(F)cc2)OCc2cc(C#N)ccc21",
    "normalized growth": 1.01
  },
  {
    "compound": "C=C(C)C1Cc2c(ccc(C(=O)O)c2O)O1 (configuration not stated)",
    "normalized growth": 0.946
  },
  {
    "compound": "CON",
    "normalized growth": 0.991
  },
  {
    "compound": "O=C(O)c1cccnc1C(=O)O",
    "normalized growth": 1.01
  },
  {
    "compound": "CCCCN(CC)c1c([N+](=O)[O-])cc(C(F)(F)F)cc1[N+](=O)[O-]",
    "normalized growth": 1.01
  },
  {
    "compound": "CCC[C@@H]1C[C@@H](C(=O)N[C@H]([C@H]2O[C@H](SC)[C@H](O)[C@@H](O)[C@H]2O)[C@H](C)O)N(C)C1",
    "normalized growth": 0.975
  },
  {
    "compound": "C[N+]1(C)CCCC(OC(=O)C(O)(c2ccccc2)c2ccccc2)C1 (configuration not stated)",
    "normalized growth": 1
  },
  {
    "compound": "CC(=O)Nc1c(I)cc(I)c(C(=O)O)c1I",
    "normalized growth": 0.986
  },
  {
    "compound": "CN1CCN(C2=Nc3cc(Cl)ccc3Nc3ccccc32)CC1",
    "normalized growth": 1.01
  },
  {
    "compound": "C[N+]12CCC(CC1)C(OC(=O)C(O)(c1ccccc1)c1ccccc1)C2 (configuration not stated)",
    "normalized growth": 0.983
  },
  {
    "compound": "CC(NC(C)(C)C)C(=O)c1cccc(Cl)c1 (configuration not stated)",
    "normalized growth": 1
  }
]

###

experiment: chemical genetic growth profiling, strain panel (AID 1159580);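 further: tested at 20 µM; growth read once vehicle control cultures reached saturation at 30 °C; 1 = growth at the plate median or of vehicle wells; lower values mean less growth of the strain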; conditions: S. cerevisiae deletion strains, growth OD, locus YLR268W, strain sec22, active compounds read low
Among all 5,500 compounds or so, about 2,000 (36%) were called active. Another 18% or so got no clear call; they are omitted. The list shows a part of the results.

[
  {
    "smiles.representation": "CC(C)N1C(=O)c2ccccc2NS1(=O)=O",
    "normalized growth": 1.01
  },
  {
    "smiles.representation": "O=C(O)c1cc(O)c2c(c1)C(=O)c1cc(O)cc(O)c1C2=O",
    "normalized growth": 0.938
  },
  {
    "smiles.representation": "CCCCN(CC)c1c([N+](=O)[O-])cc(C(F)(F)F)cc1[N+](=O)[O-]",
    "normalized growth": 1.02
  }
]

###

assay: chemical genetic growth profiling, strain panel (AID 1159580);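 further: tested at 20 µM; growth read once vehicle control cultures reached saturation at 30 °C; 1 = growth at the plate median or of vehicle wells; lower values mean less growth of the strain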; conditions: S. cerevisiae deletion strains, growth OD, locus YLR221C, strain rsa3
The whole screen tested about 5,500 compounds, of which about 2,000 (36%) were called active. Not shown: some 18% with an inconclusive outcome. No stated cut-off is given here; in the data, active means normalized growth mostly below about 0.91 (no sharp cut-off); inconclusive means no clear call, values can overlap the other calls; inactive means mostly above about 0.92. The list shows a part of the results.
Outcomes: active, inactive

[
  {
    "compound": "C[C@H]1C(=O)CCC2[C@]3(C)CC[C@@]4(C)C5CC(C)(C)CC[C@]5(C)CC[C@]4(C)C3CC[C@@]21C (stereo partly drawn)",
    "group": "inactive"
  },
  {
    "compound": "O=C(/C=C/c1ccc(O)cc1)c1ccc(O)cc1O",
    "group": "inactive"
  },
  {
    "compound": "OC[C@H]1O[C@@H](Oc2ccc(O)cc2)[C@H](O)[C@@H](O)[C@@H]1O",
    "group": "inactive"
  },
  {
    "compound": "CCCc1ncc(C[n+]2ccccc2C)c(N)n1",
    "group": "inactive"
  },
  {
    "compound": "COc1ccc([C@@H](C)C(=O)c2ccc(O)cc2O)cc1",
    "group": "inactive"
  },
  {
    "compound": "O=c1c(O)c(-c2ccccc2)oc2ccc3occc3c12",
    "group": "active"
  },
  {
    "compound": "O=c1c(O)c(-c2ccc(O)cc2)oc2ccccc12",
    "group": "active"
  },
  {
    "compound": "CC(C)[C@@H]1CC[C@@H](C)C[C@H]1OC(=O)c1ccccc1",
    "group": "inactive"
  }
]

###

This listing pairs molecules with measured normalized growth.
test: chemical genetic growth profiling, strain panel (AID 1159580);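 further: tested at 20 µM; growth read once vehicle control cultures reached saturation at 30 °C; 1 = growth at the plate median or of vehicle wells; lower values mean less growth of the strain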; conditions: S. cerevisiae deletion strains, growth OD, locus YJR066W, strain TOR1, active compounds read low
In all, about 5,500 compounds went through this assay and about 2,000 (36%) were called active. Not shown: some 18% with an inconclusive outcome. The list shows a part of the results.

[
  {
    "molecule": "O=C(O)c1cc(=O)c2ccccc2[nH]1",
    "normalized growth": 0.88
  },
  {
    "molecule": "COc1cc2c(cc1OC)C(C)NCC2 (stereo not drawn)",
    "normalized growth": 0.966
  },
  {
    "molecule": "COc1cc(Cc2cnc(N)nc2N)cc(OC)c1OC",
    "normalized growth": 0.929
  }
]
